- Test system: T-47D breast
- assay_comment: NCI tumour cell line growth inhibition, 48 h
Where a SMILES comes first, the peptide text is derived from it. [ ]: non-standard residue; d: D form. pGlu = O=C1CC[CH](C(=O)O)N1
attribute_measured: TGI

A selection of reference data follows.
| compound | tgt | TGI |
| --- | --- | --- |
| C=C1C(=O)O[C@H]2[C@H]1CC/C(COC(=O)CSCSCC(=O)OC/C1=C/CC[C@@]3(C)O[C@H]3[C@H]3OC(=O)C(=C)[C@@H]3CC1)=C\CC[C@@]1(C)O[C@@H]21 | T-47D breast | 3.7 µM |
| CN1CCN(C(=S)N(C(=O)c2ccc(Cl)cc2)c2ccccc2)CC1 | T-47D breast | > 100 µM |
| COC(=O)c1ccc(-c2nc3cc(Cl)c(Cl)cc3nc2C#N)cc1 | T-47D breast | > 100 µM |
| CC(C)Oc1c(O)c2c3c(oc(=O)n3C=CC2c2ccccc2)c1OC(C)C (configuration not stated) | T-47D breast | > 100 µM |
| CCN(Cc1cc(Nc2nc(C)cn3c(-c4cn[nH]c4)cnc23)sn1)C(C)(C)CO | T-47D breast | 18.5 µM |

Item `CC1=NN(c2cccc(Cl)c2)C(=N/c2nc3ccccc3s2)/C1=C\c1ccc(Cl)cc1` has what recorded TGI?
> 100 µM

# lookup: TGI of CCNC(=O)C1CCCN1C(=O)C(CCCN=C(N)N)NC(=O)C(CC(C)C)NC(=O)C(CC(C)C)NC(=O)C(Cc1ccc(O)cc1)NC(=O)C(CO)NC(=O)C(Cc1c[nH]c2ccccc12)NC(=O)C(Cc1cnc[nH]1)NC(=O)C1CCC(=O)N1 (configuration not stated) ([pGlu]HWSYLLRP-NHEt; configuration not given here)
> 100 µM

###

- Tested on: ACHN renal
- assay_comment: NCI tumour cell line growth inhibition, 48 h
attribute_measured: TGI

These recorded examples may help you get a feel for the data.
| compound | tgt | TGI |
| --- | --- | --- |
| CC[C@@H]1c2c(C#N)ncn2-c2cnc(Nc3ccc(C(=O)NC4CCN(C5CCN(CC6CC6)CC5)CC4)cc3OC)nc2N1C1CCCC1 | ACHN renal | 1.93 µM |
| O=C(NNC(=S)Nc1ccccc1)c1cc(-c2ccccc2)nc2ccccc12 | ACHN renal | 91.9 µM |
| CCOC(=O)N1CCN(/[N+]([O-])=N/Oc2ccc([N+](=O)[O-])cc2[N+](=O)[O-])CC1 | ACHN renal | 1.37 µM |
| O=C1N=C(SC(SC2=NC(=O)C3(NN2)c2ccccc2-c2ccccc23)=C(SC2=NC(=O)C3(NN2)c2ccccc2-c2ccccc23)SC2=NC(=O)C3(NN2)c2ccccc2-c2ccccc23)NNC12c1ccccc1-c1ccccc12 | ACHN renal | 9.09 µM |
| CCOC(=O)NC(Nc1ncccn1)(C(=O)OCC)C(F)(F)F (configuration not stated) | ACHN renal | > 100 µM |
| N.N.N.N.N.NC(=O)c1nn[n-]n1.[Cl-].[Co+3] | ACHN renal | > 100 µM |
| C=C1C(=O)O[C@@H]2C[C@@H](C)[C@@H]3C=CC(=O)[C@@]3(C)[C@@H](O)[C@H]12 | ACHN renal | 6.33 µM |
| Fc1ccc(Oc2nc3ccc(C(F)(F)F)cc3nc2-c2ccccc2)cc1 | ACHN renal | > 100 µM |

Entry under review: `CCCCCCCCCCCc1nnc(N)o1` . Reported TGI?
> 100 µM

Reported TGI, compound `O=C(NCCCCNc1cccccc1=O)OCc1ccccc1` : ____
> 100 µM

Please report the recorded TGI for `CNC(=O)Nc1nc2ccc([N+](=O)[O-])cc2[nH]1` .
> 100 µM

Fill in the blank: the reported TGI of `ClCc1cccc2c(CCl)cccc12` is ____.
6.21 µM
